target: IRAK4 (Homo sapiens (Human))
Where a name gives a salt, the structure may show the parent alone.
Parameter class (string): assigned from measured IC50. Ranges: bin A: < 30 nM; bin B: ≥ 30 nM and < 400 nM; bin C: ≥ 400 nM

Sample answers from the record:
# bin lookup: classify NCCNc1ncc2ccc(C(=O)Nc3cn(CCO)nc3C(N)=O)n2n1 [Example 59, trifluoroacetate] by its IC50
bin A

Moving on to the next compound: NC(=O)Cn1cc(NC(=O)c2cnn3ccc(N[C@@H]4CCCC[C@@H]4N)nc23)c(C(N)=O)n1 [Example 32]
bin A

Continue with NC(=O)c1nn(-c2cccnc2)cc1NC(=O)c1cnn2ccc(N[C@H]3CCCC[C@H]3N)nc12 (relative stereo) [Example 6]
bin A

Do the same for NC(=O)c1nn(C2CCNCC2)cc1NC(=O)c1cnn2cccnc12 [Example 47, hydrochloride] please
bin C

Now consider CN(C)C(=O)c1nn(C)cc1NC(=O)c1cnn2ccc(N[C@H]3CCCC[C@H]3N)nc12 (relative stereo) [Example 17, trifluoroacetate] .
bin B

Please answer likewise for NC(=O)c1cnccc1NC(=O)c1cnn2cccnc12 [Example 49, hydrochloride]
bin C

Item: Cn1cc(NC(=O)c2cnn3ccc(N4CCNCC4)nc23)c(C(N)=O)n1 [Example 31, hydrochloride]
bin B

Request: NC(=O)c1nn(-c2cccnc2)cc1NC(=O)c1cnn2ccc(N3CCNCC3)nc12 [Example 36, trifluoroacetate]
bin B

Further cases:
Tag the class for Cn1cc(NC(=O)c2cnn3ccc(N[C@@H]4CCCC(F)(F)[C@@H]4N)nc23)c(C(N)=O)n1 [Example 3, trifluoroacetate]
bin B

Check NC(=O)c1cc(S(N)(=O)=O)c(Cl)cc1NC(=O)c1cnn2cccnc12 [Example 54, trifluoroacetate] too.
bin B

And for Cn1cc(NC(=O)c2cnn3ccc(NC4CCCCCC4N)nc23)c(C(N)=O)n1 (stereo not shown) [Example 13] ?
bin A

Now this one: CC(C)(C)c1cc(NC(=O)c2cnn3cccnc23)c(C(N)=O)s1 [Example 51, hydrochloride]
bin C

Try NC(=O)c1n[nH]cc1NC(=O)c1cnn2cccnc12 [Example 53, trifluoroacetate] next.
bin C

And what about the compound Cn1cc(NC(=O)c2cnn3ccc(N[C@H]4COCC[C@H]4N)nc23)c(C(N)=O)n1 [Example 1] ?
bin B

Item: NC(=O)c1sccc1NC(=O)c1cnn2cccnc12 [Example 50, hydrochloride]
bin C

====

Reported IC50 values for the following compounds.
target: IRAK4 (Homo sapiens (Human), UniProt Q9NWZ3); experiment: IRAK4 Kinase Assay (IMAP fluorescence polarization); type: biochemical; settings: GST tagged IRAK4, 100 μM ATP, 30 minutes at 25° C., IMAP FP
Sequence (Q9NWZ3 whole entry): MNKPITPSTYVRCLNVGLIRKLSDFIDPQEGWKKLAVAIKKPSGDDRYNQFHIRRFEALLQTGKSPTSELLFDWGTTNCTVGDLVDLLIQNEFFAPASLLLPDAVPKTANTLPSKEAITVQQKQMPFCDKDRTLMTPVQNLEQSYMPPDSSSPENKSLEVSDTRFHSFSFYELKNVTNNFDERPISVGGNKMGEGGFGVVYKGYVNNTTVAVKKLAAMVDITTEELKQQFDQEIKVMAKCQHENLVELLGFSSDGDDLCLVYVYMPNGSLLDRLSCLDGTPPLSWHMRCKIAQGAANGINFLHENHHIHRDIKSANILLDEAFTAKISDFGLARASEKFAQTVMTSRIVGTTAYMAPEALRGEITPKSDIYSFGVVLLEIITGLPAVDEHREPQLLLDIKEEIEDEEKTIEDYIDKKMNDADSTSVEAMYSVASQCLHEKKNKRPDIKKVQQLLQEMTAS
Where a name gives a salt, the structure may show the parent alone.
Output spec: scalar in nM, unitless text.

Can you share its IC50? I mean this compound: Cn1cc(NC(=O)c2cnn3ccc(N[C@H]4CCS(=O)(=O)C[C@H]4N)nc23)c(C(N)=O)n1 (relative stereo) [Example 4, trifluoroacetate]
5

Now try CNC(=O)c1nn(C)cc1NC(=O)c1ccc2cnc(NCCN)nn12 [Example 60, trifluoroacetate] .
3

For `CCn1cc(NC(=O)c2ccc3cnc(N[C@@H]4CCCC[C@@H]4N)nn23)c(C(N)=O)n1` then?
1

Entry to check: CN1CCCC(n2cc(NC(=O)c3cnn4ccc(N[C@H]5CCCC[C@H]5N)nc34)c(C(N)=O)n2)C1 (relative stereo) [Example 10, trifluoroacetate]
25

# repeat for CN1CCCC(Cn2cc(NC(=O)c3cnn4ccc(N[C@@H]5CCCC[C@@H]5N)nc34)c(C(N)=O)n2)C1 (stereo partly drawn) [Example 25, trifluoroacetate]
2

Kindly consider the entry below.
Quick one: IC50 for NC(=O)c1nn(CCO)cc1NC(=O)c1ccc2cnc(N[C@@H]3CCCC[C@@H]3N)nn12 [Example 63, trifluoroacetate] ?
3

====

molecular target: IRAK4 (Homo sapiens (Human), UniProt Q9NWZ3)
Where a name gives a salt, the structure may show the parent alone.
measurement label: pIC50
pIC50 field: float, defined as -log10 of concentration (mol/L).

Check out these entries, answers already filled in.
Given the entry NC(=O)c1nn(CCO)cc1NC(=O)c1cnn2ccc(N[C@@H]3CCCC[C@@H]3N)nc12 [Example 23, trifluoroacetate] , report its measured pIC50.
9.00

Item: Cn1cc(NC(=O)c2cnn3ccc(NC4CCCNC4)nc23)c(C(N)=O)n1 (stereo not drawn) [Example 15, hydrochloride]
7.48

Likewise for CC(C)n1cc(NC(=O)c2cnn3ccc(N[C@@H]4CCCC[C@@H]4N)nc23)c(C(N)=O)n1 [Example 22, trifluoroacetate] ?
9.00

Moving on to the next molecule: COCCn1cc(NC(=O)c2ccc3cnc(N[C@@H]4CCCC[C@@H]4N)nn23)c(C(N)=O)n1 [Example 66, trifluoroacetate]
8.22

Would you mind doing CS(=O)(=O)N1CCC(n2cc(NC(=O)c3cnn4cccnc34)c(C(N)=O)n2)CC1 [Example 48] as well?
6.19

Moving on to the next molecule.
What does the data say about its pIC50? Entry: Cn1cc(NC(=O)c2cnn3ccc(NC4CCCCC4)nc23)c(C(N)=O)n1 [Example 26, trifluoroacetate]
6.74

====

pIC50, IRAK4 (Homo sapiens (Human)), per-entry values.
Structures can show the parent of a compound that is named as a salt.
The scale used: pIC50 is minus the common logarithm of the concentration in molar units.

// known answers, use as guide
Which pIC50 reading was recorded for the molecule Cn1cc(NC(=O)c2cnn3ccc(N[C@H]4CS(=O)(=O)CC[C@H]4N)nc23)c(C(N)=O)n1 (relative stereo) [Example 5, trifluoroacetate] ?
7.82

Same read-out for Cn1cc(NC(=O)c2cnn3ccc(NC4CCNC4)nc23)c(C(N)=O)n1 (centres unmarked) [Example 14, hydrochloride] ?
6.92

Further, for NC(=O)c1ccccc1NC(=O)c1cnn2cccnc12 [Example 52, hydrochloride] ?
5.12

Same lookup for `Cn1cc(NC(=O)c2csc3nccnc23)c(C(N)=O)n1` , please.
7.16

And what about the molecule CNC(=O)c1nn(C)cc1NC(=O)c1cnn2ccc(N[C@H]3CCCC[C@H]3N)nc12 (relative stereo) [Example 16, trifluoroacetate] ?
7.74

Entry NC(=O)c1ccncc1NC(=O)c1cnn2cccnc12 [Example 45, hydrochloride] please
5.09

Alright, here's another molecule for you.
So what's the measured pIC50 for this one? CNC(=O)c1nn(C)cc1NC(=O)c1ccc2cnc(N[C@@H]3CCCC[C@@H]3N)nn12 [Example 64, trifluoroacetate]
7.89
